# STUDY_SYSTEM: T1, human factor Xa (human, UniProt P00742 41-179; P00742 235-488)
# T1 chain 1: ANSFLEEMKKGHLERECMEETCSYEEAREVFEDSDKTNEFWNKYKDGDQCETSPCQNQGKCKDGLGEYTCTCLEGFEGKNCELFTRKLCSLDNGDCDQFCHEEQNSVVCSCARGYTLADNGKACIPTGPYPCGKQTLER
# T1 chain 2: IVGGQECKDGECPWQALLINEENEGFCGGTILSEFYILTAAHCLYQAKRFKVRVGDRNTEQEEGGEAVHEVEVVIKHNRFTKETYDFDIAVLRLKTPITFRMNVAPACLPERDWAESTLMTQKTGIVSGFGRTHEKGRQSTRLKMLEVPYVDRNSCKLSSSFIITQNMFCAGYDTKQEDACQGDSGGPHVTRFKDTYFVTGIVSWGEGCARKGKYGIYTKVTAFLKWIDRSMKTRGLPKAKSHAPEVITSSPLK
# TEST_METHOD_NOTES: enzyme inhibition
Listed next: entries and their corresponding Ki.
READOUT_NAME: Ki

BINDER | RECORDED_MEASUREMENT
TW6172 (protein) EVVREVCSEQAETGPCRAMASRWYFDVTEGKCAPFFYGGCGGNRNNFDTEEYCMAVCGSAI | 1460 nM
TW6168 (protein) EVVREVCSEQAETGPCRAMILRWYFDVTEGKCAPFFYGGCGGNRNNFDTEEYCMAVCGSAI | 395 nM
CL006 (protein) EVVREVCSEQAETGPCRAMISAWYFDVTEGKCAPFFYGGCGGNRNNFDTEEYCMAVCGSAI | 133 nM
